target: L-lactate dehydrogenase A chain (Homo sapiens, UniProt P00338); test: Inhibition of human LDH-A by biochemical assay
observation.type: IC50 (nM)

Some solved cases for reference:
                                   molecule                               test_target  observation_type  obs_value
0  O=C1CC(c2c(Cl)ccc(NC3CCOCC3)c2Cl)CC(O)=C1Sc1ccccc1Cl (stereo not drawn)  L-lactate dehydrogenase A chain (Homo sapiens, UniProt P00338)              IC50         60
1  CC(C)OC(=O)Cc1ccc(Cl)c(SC2=C(O)CC(c3c(Cl)cccc3Cl)CC2=O)c1 (stereo not drawn)  L-lactate dehydrogenase A chain (Homo sapiens, UniProt P00338)              IC50        120
2  O=C1CC(c2c(Cl)ccc(-c3cncnc3)c2Cl)CC(O)=C1Sc1ccccc1Cl (stereo not drawn)  L-lactate dehydrogenase A chain (Homo sapiens, UniProt P00338)              IC50       1100
3  O=C1CC(c2c(Cl)ccc(N3CCOCC3)c2Cl)CC(O)=C1Sc1ccccc1Cl (stereo not drawn)  L-lactate dehydrogenase A chain (Homo sapiens, UniProt P00338)              IC50        240
4  O=C1CC(c2c(Cl)ccc(-c3cccnc3)c2Cl)CC(O)=C1Sc1ccccc1Cl (stereo not drawn)  L-lactate dehydrogenase A chain (Homo sapiens, UniProt P00338)              IC50        108

P. O=C(Cc1ccc(Cl)c(SC2=C(O)CC(c3c(Cl)cccc3Cl)CC2=O)c1)NCCO (stereo not drawn)
Q. C[C@@H](OC(=O)Cc1ccc(Cl)c(SC2=C(O)CC(c3c(Cl)cccc3Cl)CC2=O)c1)c1ccccc1 (stereo partly drawn)
R. COC(=O)Cc1ccc(Cl)c(SC2=C(O)CC(c3c(Cl)cccc3Cl)CC2=O)c1 (stereo not drawn)
S. O=C1CC(c2c(Cl)ccc(-c3ccccc3)c2Cl)CC(O)=C1Sc1ccccc1Cl (stereo not drawn)
T. O=C(O)Cc1ccc(Cl)c(SC2=C(O)CC(c3c(Cl)cccc3Cl)CC2=O)c1 (stereo not drawn)
QUERY: List items by IC50 in falling order. Lab note: record answer as labels in requested order.
RESULT: T, P, S, R, Q
